- Test description: Relative AUC ratio of Atazanavir in Sprague-Dawley rat at 3 ml/kg,po measured upto 24 hrs by UPLC-MS/MS analysis
- Assay type: ADME
- Measurement conditions: in vivo
I would appreciate it if you labelled entries rule met when Ratio is 4 or higher, otherwise rule not met.

As a guide, the following entries are already answered.
Molecule	Assigned category
COC(=O)N[C@H](C(=O)N[C@@H](Cc1ccccc1)[C@H](CN(Cc1ccc(-c2ccccn2)cc1)NC(=O)[C@@H](NC(=O)OC)C(C)(C)C)OC(=O)OC(OC(=O)[C@@H](NC(=O)[C@H](N)C(C)C)C(C)C)C(C)C)C(C)(C)C (stereo in doubt; 6h)	rule met
COC(=O)N[C@H](C(=O)N[C@@H](Cc1ccccc1)[C@H](CN(Cc1ccc(-c2ccccn2)cc1)NC(=O)[C@@H](NC(=O)OC)C(C)(C)C)OC(=O)OC(OC(=O)[C@@H](N)C(C)C)C(C)(C)C)C(C)(C)C (mixture of isomers)	rule met
COC(=O)N[C@H](C(=O)N[C@@H](Cc1ccccc1)[C@H](CN(Cc1ccc(-c2ccccn2)cc1)NC(=O)[C@@H](NC(=O)OC)C(C)(C)C)OC(=O)OC(OC(=O)[C@@H](N)C(C)C)C1CCCCC1)C(C)(C)C (stereo in doubt; 4n)	rule not met
COC(=O)N[C@H](C(=O)N[C@@H](Cc1ccccc1)[C@H](CN(Cc1ccc(-c2ccccn2)cc1)NC(=O)[C@@H](NC(=O)OC)C(C)(C)C)OC(=O)OC(OC(=O)[C@@H](NC(=O)[C@@H](N)C(C)C)C(C)C)C(C)C)C(C)(C)C (stereo in doubt; 6e)	rule not met

Is Ratio at least 4? Consider COC(=O)N[C@H](C(=O)N[C@@H](Cc1ccccc1)[C@H](CN(Cc1ccc(-c2ccccn2)cc1)NC(=O)[C@@H](NC(=O)OC)C(C)(C)C)OC(=O)OC(OC(=O)[C@H](C)N)C(C)C)C(C)(C)C (stereo in doubt; 3p) rule not met

Is Ratio at least 4? Consider CN[C@H](C(=O)OC(OC(=O)O[C@@H](CN(Cc1ccc(-c2ccccn2)cc1)NC(=O)[C@@H](NC(=O)OC)C(C)(C)C)[C@H](Cc1ccccc1)NC(=O)[C@@H](NC(=O)OC)C(C)(C)C)C(C)C)C(C)C (stereo in doubt; 5e) rule met

Is Ratio at least 4? Consider COC(=O)N[C@H](C(=O)N[C@@H](Cc1ccccc1)[C@H](CN(Cc1ccc(-c2ccccn2)cc1)NC(=O)[C@@H](NC(=O)OC)C(C)(C)C)OC(=O)OC(OC(=O)[C@@H](N)Cc1ccccc1)C(C)C)C(C)(C)C (stereo in doubt; 3v) rule not met

Is Ratio at least 4? Consider COC(=O)N[C@H](C(=O)N[C@@H](Cc1ccccc1)[C@H](CN(Cc1ccc(-c2ccccn2)cc1)NC(=O)[C@@H](NC(=O)OC)C(C)(C)C)OC(=O)OC(OC(=O)C[C@H](N)Cc1cc(F)c(F)cc1F)C(C)C)C(C)(C)C (stereo in doubt; 3ac) rule met

Is Ratio at least 4? Consider COC(=O)N[C@H](C(=O)N[C@@H](Cc1ccccc1)[C@H](CN(Cc1ccc(-c2ccccn2)cc1)NC(=O)[C@@H](NC(=O)OC)C(C)(C)C)OC(=O)OC(OC(=O)CCN)C(C)C)C(C)(C)C (stereo in doubt; 3z) rule met

Is Ratio at least 4? Consider CN[C@H](C(=O)OC(OC(=O)O[C@@H](CN(Cc1ccc(-c2ccccn2)cc1)NC(=O)[C@@H](NC(=O)OC)C(C)(C)C)[C@H](Cc1ccccc1)NC(=O)[C@@H](NC(=O)OC)C(C)(C)C)C(C)C)C(C)C (stereo in doubt; 5f) rule met

Is Ratio at least 4? Consider COC(=O)N[C@H](C(=O)N[C@@H](Cc1ccccc1)[C@H](CN(Cc1ccc(-c2ccccn2)cc1)NC(=O)[C@@H](NC(=O)OC)C(C)(C)C)OC(=O)OC(OC(=O)[C@H](N)C(C)C)C(C)C)C(C)(C)C (stereo in doubt; 5j) rule met

Is Ratio at least 4? Consider COC(=O)N[C@H](C(=O)N[C@@H](Cc1ccccc1)[C@H](CN(Cc1ccc(-c2ccccn2)cc1)NC(=O)[C@@H](NC(=O)OC)C(C)(C)C)OC(=O)OC(OC(=O)[C@@H](N)CC(C)C)C(C)C)C(C)(C)C (stereo in doubt; 3u) rule not met

Is Ratio at least 4? Consider COC(=O)N[C@H](C(=O)N[C@@H](Cc1ccccc1)[C@H](CN(Cc1ccc(-c2ccccn2)cc1)NC(=O)[C@@H](NC(=O)OC)C(C)(C)C)OC(=O)OC(OC(=O)[C@@H](N)C(C)C)C1CCCCC1)C(C)(C)C (stereo in doubt; 4o) rule not met

Is Ratio at least 4? Consider COC(=O)N[C@H](C(=O)N[C@@H](Cc1ccccc1)[C@H](CN(Cc1ccc(-c2ccccn2)cc1)NC(=O)[C@@H](NC(=O)OC)C(C)(C)C)OC(=O)OC(OC(=O)[C@H](N)C(C)C)C(C)C)C(C)(C)C (stereo in doubt; 5i) rule met

Is Ratio at least 4? Consider COC(=O)N[C@H](C(=O)N[C@@H](Cc1ccccc1)[C@H](CN(Cc1ccc(-c2ccccn2)cc1)NC(=O)[C@@H](NC(=O)OC)C(C)(C)C)OC(=O)OC(OC(=O)[C@H](C(C)C)N(C)C)C(C)C)C(C)(C)C (stereo in doubt; 5g) rule met

Is Ratio at least 4? Consider COC(=O)N[C@H](C(=O)N[C@@H](Cc1ccccc1)[C@H](CN(Cc1ccc(-c2ccccn2)cc1)NC(=O)[C@@H](NC(=O)OC)C(C)(C)C)OC(=O)OC(OC(=O)C1(N)CC1)C(C)C)C(C)(C)C (stereo in doubt; 3x) rule not met
